Source of measurements: patent US20250296992A1

- measured_target: T1, human SLITRK6 extracellular domain linked to his tag (human, UniProt Q9H5Y7 27-608)
- T1 construct: extracellular domain; also called huSLITRK6; Hu SLITRK6; not shown: his tag
- assay_procedure: BLI binning on huSLITRK6-his; Ab1 = row antibody first, then Ab2 (competitor) = hu1H2-13
quantity: epitope binning signal

Any idea what epitope binning signal was measured for hu14G1-03 (antibody, V domains shown) VH: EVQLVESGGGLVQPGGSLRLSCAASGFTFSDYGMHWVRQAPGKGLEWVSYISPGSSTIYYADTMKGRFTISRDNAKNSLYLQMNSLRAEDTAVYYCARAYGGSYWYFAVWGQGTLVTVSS VL: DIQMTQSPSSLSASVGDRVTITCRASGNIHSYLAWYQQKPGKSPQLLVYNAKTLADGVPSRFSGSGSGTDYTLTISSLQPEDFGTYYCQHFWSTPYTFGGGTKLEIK ?
0.0268
